# CONDITIONS_USED: buffer; pH 7.4; 200.0 µM
Note to self: class = bucket of solubility kinetic, per lower band: < 9 µg/mL; central band: ≥ 9 µg/mL and < 30 µg/mL; upper band: ≥ 30 µg/mL

Reference set (5 entries):
{"columns": ["COMPOUND", "GROUP_LABEL"],
 "data": [
  ["CCNS(=O)(=O)c1ccc(NC(=O)Nc2cc(C)ccc2OC)cc1", "lower band"],
  ["N#Cc1ccc(CN2C=NS(=O)(=O)c3ccccc32)cc1", "upper band"],
  ["Cn1c(Cc2ccccc2)nnc1SCC(=O)NC1CCCC1", "upper band"],
  ["COc1ccc(NS(=O)(=O)c2cccc(C(=O)N3CCN(C(=O)c4ccco4)CC3)c2)cc1", "upper band"],
  ["O=C1CNC(=O)/C1=C/c1ccc(Br)cc1", "central band"]
]}

Qu. Tag the class for Cc1csc(NC(=O)c2cccc([N+](=O)[O-])c2C(=O)O)n1
Ans. upper band

Qu. Class label required: CCN(CC)S(=O)(=O)c1ccc(OC(C)C)c(N)c1
Ans. upper band
